assay: Intravenous and intraduodenal (bolus) bioavailability of zanamivir from Capmul MCM L8 25, 50, 75 µL (Example 7)
applied conditions: male, Sprague-Dawley, rat, in vivo, 1.5 mg/animal, Plasma concentration, ID bolus 1.5 mg/animal, 50 µL Capmul MCM L8, Ex.7; 2.0 hr; individual rats
measured metric: concentration at 2 hr (ng/mL)

| compound | measured metric | unit of measure | reported result |
| --- | --- | --- | --- |
| CC(=O)NC1C(NC(=N)N)C=C(C(=O)O)OC1C(O)C(O)CO (stereo not shown) [Zanamivir] | concentration at 2 hr | ng/mL | 103 |

* * *

assay: Intraduodenal bioavailability of zanamivir from glycerol and PBS formulations, enhancer pre-dose (Example 6)
applied conditions: male, Sprague-Dawley, rat, in vivo, 1.5 mg, tmax (second line so headed, Table 10), ID 1.5 mg/animal, 150 µL Glycerol; mean
measured metric: Tmax (h)

| molecule | reported result |
| --- | --- |
| CC(=O)NC1C(NC(=N)N)C=C(C(=O)O)OC1C(O)C(O)CO (stereo not shown) [Zanamivir] | 1.63 |

Source: patent US20140314857A1
